Biological target: recombinant human Bcl-2-G101V protein (Homo sapiens (Human), UniProt P10415, G101V)
Test: Bcl-2-G101V TR-FRET Assay
Assay type: binding
Details: Bcl-2 G101V mutant, TR-FRET; read-out: Biochemical assay (IC50, nM) Bcl-2 G101V
Protocol: Biological Example: Bcl-2-G101V TR-FRET Assay […]. The TR-FRET signals (ex337 nm, em490 nm/520 nm) were read on BMG PHERAstar FSX instrument. The inhibition percentage of Bcl-2-G101V interaction with its ligand in presence of increasing concentrations of compounds was calculated based on the ratio of fluorescence at 490 nm to that at 520 nm. The IC50 for each compound was derived from fitting the data to the four-parameter logistic equation by Graphpad Prism software or Dotmatics.
parameterMeasured: IC50

Bench note: what IC50 did COc1ccc(CN2CCN(C3CC4(CCN(c5ccc(C(=O)NS(=O)(=O)c6ccc(NC[C@H]7CC[C@](C)(O)CC7)c([N+](=O)[O-])c6)c(Oc6cnc7[nH]cc(Cl)c7c6)c5)CC4)C3)[C@H](c3ccccc3C(C)C)C2)cc1 show?
1.8 nM

Bench note: what IC50 did COc1ccc(CN2CCN(C3CC4(CCN(c5ccc(C(=O)NS(=O)(=O)c6ccc(NC[C@H]7CC[C@](C)(O)CC7)c([N+](=O)[O-])c6)c(Oc6cnc7[nH]ccc7c6)c5)CC4)C3)[C@H](c3ccccc3C(C)C)C2)cn1 show?
0.14 nM

Bench note: what IC50 did CC(C)c1ccccc1[C@@H]1CN(Cc2ccnc3c2OC(C)(C)CO3)CCN1C1CC2(C1)CN(c1ccc(C(=O)NS(=O)(=O)c3ccc(NC[C@H]4CC[C@](C)(O)CC4)c([N+](=O)[O-])c3)c(Oc3cnc4[nH]cc(F)c4c3)c1)C2 show?
0.19 nM

Bench note: what IC50 did CC(C)c1ccccc1C1CN(c2ccccc2)CCN1C1CC2(CCN(c3ccc(C(=O)NS(=O)(=O)c4ccc(NC[C@H]5CC[C@](C)(O)CC5)c([N+](=O)[O-])c4)c(Oc4cnc5[nH]ccc5c4)c3)CC2)C1 (stereo partly shown) show?
54 nM
